Test system: HS 578T breast
experiment.summary: NCI tumour cell line growth inhibition, 48 h; in the data active = GI50 below about 0.43 µM; inactive = the rest
Classes used: true (1) (active), false (0) (inactive)

1) COc1ccc(-c2[nH]c3ccccc3c2C=C(C#N)C#N)cc1 = true (1)
2) CN(C)c1ccc(N2Cc3ccccc3OC3=C2C(=O)c2c(O)ccc(O)c2C3=O)cn1 = false (0)
3) COc1cc(-c2nc(Nc3nc4ccccc4[nH]3)nc(N)c2C#N)cc(OC)c1OC = true (1)
4) CC1CC2(C)ON=C(c3ccccc3)N2c2ccccc2S1 (centres undefined) = false (0)
5) COc1cc2nc(-c3cnc(N(C)C)nc3)nc(NC3CCN(Cc4ccccc4)CC3)c2cc1OC = false (0)
6) CC1=CC(=NC(=O)CBr)C=C/C1=N\S(=O)(=O)c1ccccc1 = false (0)
7) N#C/C(=C\c1ccc(-c2ccc(Cl)cc2)o1)C(=O)Nc1ncc(Cc2ccc(Cl)cc2)s1 = false (0)
8) COc1ccc2c(c1)c(-c1ccc(-c3cn(S(=O)(=O)c4ccccc4)c4ccc(OC)cc34)s1)cn2S(=O)(=O)c1ccccc1 = false (0)
9) COc1ccc2nc(-c3cc(-c4cc(OC)c(OC)c(OC)c4)n[nH]3)[nH]c2c1 = false (0)
